# Test system: human venous endothelial cells (HUVECs)
# protocol-text: In vitro angiogenesis model (pseudotubule length of HUVECs on matrigel/collagen)
# Format: cell-based
# Parameters: concentration or dose not given beside the values
# condition-info: relative to FGF2; in vitro
Threshold check on % activation with respect to FGF2 (in vitro): at or above 40% gives True, strictly below gives False.

sample-smiles	class-label
Cc1c(-c2cccc(C(=O)NCCOP(=O)(O)OCCNC(=O)c3cccc(-c4c(C)c(C(=O)c5ccc6c(=O)n(CC(=O)O)c(=O)[nH]c6c5)n5ccccc45)c3)c2)c2ccccn2c1C(=O)c1ccc2c(=O)n(CC(=O)O)c(=O)[nH]c2c1	False
Cc1c(-c2ccc(OCCCN3CCN(CCCOc4ccc(-c5c(C)c(C(=O)c6ccc7c(=O)n(CC(=O)O)c(=O)[nH]c7c6)n6ccccc56)cc4)CC3)cc2)c2ccccn2c1C(=O)c1ccc2c(=O)n(CC(=O)O)c(=O)[nH]c2c1	False
Cc1c(-c2ccc(OCCCCCN(CCCCCOc3ccc(-c4c(C)c(C(=O)c5ccc6c(=O)n(CC(=O)O)c(=O)[nH]c6c5)n5ccccc45)cc3)Cc3ccc(N(C)C)cc3)cc2)c2ccccn2c1C(=O)c1ccc2c(=O)n(CC(=O)O)c(=O)[nH]c2c1	False
Cc1c(-c2ccc(OCC(=O)NCCCCCCNC(=O)COc3ccc(-c4c(C)c(C(=O)c5ccc6[nH]c(=O)n(CC(=O)O)c(=O)c6c5)n5ccccc45)cc3)cc2)c2ccccn2c1C(=O)c1ccc2[nH]c(=O)n(CC(=O)O)c(=O)c2c1	True
CCN(CC)CCN(CCCCCOc1ccc(-c2c(C)c(C(=O)c3ccc4c(=O)n(CC(=O)O)c(=O)[nH]c4c3)n3ccccc23)cc1)CCCCCOc1ccc(-c2c(C)c(C(=O)c3ccc4c(=O)n(CC(=O)O)c(=O)[nH]c4c3)n3ccccc23)cc1	True
Cc1c(-c2ccc(OCCCCCN(CCCCCOc3ccc(-c4c(C)c(C(=O)c5ccc6c(=O)n(CC(=O)O)c(=O)[nH]c6c5)n5ccccc45)cc3)CCOCCO)cc2)c2ccccn2c1C(=O)c1ccc2c(=O)n(CC(=O)O)c(=O)[nH]c2c1	True
Cc1c(-c2ccc(C(=O)NCCOCCOCCNC(=O)c3ccc(-c4c(C)c(C(=O)c5ccc6c(=O)n(CC(=O)O)c(=O)[nH]c6c5)n5ccccc45)cc3)cc2)c2ccccn2c1C(=O)c1ccc2c(=O)n(CC(=O)O)c(=O)[nH]c2c1	True
Cc1c(-c2ccc(OCCCCCN(CCCCCOc3ccc(-c4c(C)c(C(=O)c5ccc6c(=O)n(CC(=O)O)c(=O)[nH]c6c5)n5ccccc45)cc3)Cc3ccncc3)cc2)c2ccccn2c1C(=O)c1ccc2c(=O)n(CC(=O)O)c(=O)[nH]c2c1	True

====

# System: human venous endothelial cells (HUVECs)
# protocol-text: In vitro angiogenesis model (pseudotubule length of HUVECs on matrigel/collagen)
# Assay type: cell-based
# Parameters: concentration or dose not given beside the values
# condition-info: relative to FGF2; in vitro
# Method: In Vitro Angiogenesis Model The products are tested for their ability to cause rearrangement of human venous endothelial cells (HUVECs) on matrigel (Becton dickinson 356230) diluted in collagen (rat tail collagen, type I: Becton dickinson 354236). After 24 hours, the cells are observed under a microscope with a ×4 objective and the length of the pseudotubules is measured by means of an image analyser (BIOCOM-logiciel Visiolab 2000).
Recorded % activation with respect to FGF2 (in vitro) by entry
measurement-label: % activation with respect to FGF2 (in vitro)

sample-smiles	data-value
Cc1c(-c2ccc(OCCCCCN(CCCCCOc3ccc(-c4c(C)c(C(=O)c5ccc6c(=O)n(CC(=O)O)c(=O)[nH]c6c5)n5ccccc45)cc3)CCN3CCN(C)CC3)cc2)c2ccccn2c1C(=O)c1ccc2c(=O)n(CC(=O)O)c(=O)[nH]c2c1	63%
Cc1c(-c2ccc(C(=O)NCCOP(=O)(O)OCCNC(=O)c3ccc(-c4c(C)c(C(=O)c5ccc6c(=O)n(CC(=O)O)c(=O)[nH]c6c5)n5ccccc45)cc3)cc2)c2ccccn2c1C(=O)c1ccc2c(=O)n(CC(=O)O)c(=O)[nH]c2c1	82%
Cc1c(-c2cccc(OCCOCCOCCOCCOc3cccc(-c4c(C)c(C(=O)c5ccc6[nH]c(=O)n(CC(=O)O)c(=O)c6c5)n5ccccc45)c3)c2)c2ccccn2c1C(=O)c1ccc2[nH]c(=O)n(CC(=O)O)c(=O)c2c1	44%
Cc1c(-c2cccc(C(=O)NCCOCCOCCNC(=O)c3cccc(-c4c(C)c(C(=O)c5ccc6c(=O)n(CC(=O)O)c(=O)[nH]c6c5)n5ccccc45)c3)c2)c2ccccn2c1C(=O)c1ccc2c(=O)n(CC(=O)O)c(=O)[nH]c2c1	85%
